# study target: TetR (class B, Tn10) (UniProt P04483)
# Sequence (P04483 whole entry): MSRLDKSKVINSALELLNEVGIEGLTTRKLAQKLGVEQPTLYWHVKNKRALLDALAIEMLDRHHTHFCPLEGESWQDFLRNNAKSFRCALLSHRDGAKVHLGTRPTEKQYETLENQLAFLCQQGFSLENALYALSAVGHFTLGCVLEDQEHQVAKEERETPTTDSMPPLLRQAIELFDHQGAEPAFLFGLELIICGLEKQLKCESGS
# test protocol: TetR repression strength (sort-seq, GFP reporter) (relative to tetO2 = 1); higher = stronger repression
# experimental parameters: E. coli
Whole data set: some 18,000 sequences, median “TetR repression strength (sort-seq, GFP reporter)” near 0.23, cut for the highest 2% near 0.68. What follows is part of a selection rich in the highest values, with near analogues and random picks from the rest.
parameter measured: TetR repression strength
# respond with the number and nothing more

For TCCCGATAAGTTGCGGAGA on TetR (class B, Tn10) (UniProt P04483), measured TetR repression strength was 0.185

For TCCCTCCCAGTGTCGGAGA on TetR (class B, Tn10) (UniProt P04483), measured TetR repression strength was 0.295

For TCCCAGAGAGTACTAGAGA on TetR (class B, Tn10) (UniProt P04483), measured TetR repression strength was 0.336

For TCCCTTCCAGTGATAGAGA on TetR (class B, Tn10) (UniProt P04483), measured TetR repression strength was 0.668

For TCCCCATCAGTGGTAGAGA on TetR (class B, Tn10) (UniProt P04483), measured TetR repression strength was 0.417

For TCCCACCAAGTAGGAGAGA on TetR (class B, Tn10) (UniProt P04483), measured TetR repression strength was 0.285

For TCCCTAGCAGTGAGAGAGA on TetR (class B, Tn10) (UniProt P04483), measured TetR repression strength was 0.376

For TCCCTGCGAGTAGTCGAGA on TetR (class B, Tn10) (UniProt P04483), measured TetR repression strength was 0.542

For TCCCGAGAAGTGAAAGAGA on TetR (class B, Tn10) (UniProt P04483), measured TetR repression strength was 0.0859

For TCCCAGCTAGTTTCTGAGA on TetR (class B, Tn10) (UniProt P04483), measured TetR repression strength was 0.207

For TCCCGCTGAGTCGGCGAGA on TetR (class B, Tn10) (UniProt P04483), measured TetR repression strength was 0.15

For TCCCTAACAGTGATAGAGA on TetR (class B, Tn10) (UniProt P04483), measured TetR repression strength was 0.816

For TCCCAGGCAGTAAGGGAGA on TetR (class B, Tn10) (UniProt P04483), measured TetR repression strength was 0.0777

For TCCCGAACAGTGGGTGAGA on TetR (class B, Tn10) (UniProt P04483), measured TetR repression strength was 0.949

For TCCCGCATAGTTATTGAGA on TetR (class B, Tn10) (UniProt P04483), measured TetR repression strength was 0.197

For TCCCTGCAAGTTTCGGAGA on TetR (class B, Tn10) (UniProt P04483), measured TetR repression strength was 0.0543

For TCCCGGACAGTGTAGGAGA on TetR (class B, Tn10) (UniProt P04483), measured TetR repression strength was 0.295

For TCCCGGACAGTCGTCGAGA on TetR (class B, Tn10) (UniProt P04483), measured TetR repression strength was 0.892

For TCCCGCCGAGTCGTCGAGA on TetR (class B, Tn10) (UniProt P04483), measured TetR repression strength was 1.24

For TCCCCAAGAGTAAATGAGA on TetR (class B, Tn10) (UniProt P04483), measured TetR repression strength was 0.368

For TCCCGGGGAGTAGCTGAGA on TetR (class B, Tn10) (UniProt P04483), measured TetR repression strength was 0.709

For TCCCGAGCAGTGAAAGAGA on TetR (class B, Tn10) (UniProt P04483), measured TetR repression strength was 0.755

For TCCCTAGCAGTGATAGAGA on TetR (class B, Tn10) (UniProt P04483), measured TetR repression strength was 0.858

For TCCCGAACAGTGGGGGAGA on TetR (class B, Tn10) (UniProt P04483), measured TetR repression strength was 0.367

For TCCCTGGAAGTGCAAGAGA on TetR (class B, Tn10) (UniProt P04483), measured TetR repression strength was 0.431

For TCCCGGACAGTCATCGAGA on TetR (class B, Tn10) (UniProt P04483), measured TetR repression strength was 0.216

For TCCCGAACAGTGTGTGAGA on TetR (class B, Tn10) (UniProt P04483), measured TetR repression strength was 0.161

For TCCCTCCCAGTGATAGAGA on TetR (class B, Tn10) (UniProt P04483), measured TetR repression strength was 0.561

For TCCCGTAGAGTGTACGAGA on TetR (class B, Tn10) (UniProt P04483), measured TetR repression strength was 0.175

For TCCCTAGTAGTGATAGAGA on TetR (class B, Tn10) (UniProt P04483), measured TetR repression strength was 0.533

For TCCCATGGAGTGTAAGAGA on TetR (class B, Tn10) (UniProt P04483), measured TetR repression strength was 0.236

For TCCCGAGCAGTGCTAGAGA on TetR (class B, Tn10) (UniProt P04483), measured TetR repression strength was 0.661

For TCCCAACGAGTTGTGGAGA on TetR (class B, Tn10) (UniProt P04483), measured TetR repression strength was 0.189

For TCCCGTCAAGTACCCGAGA on TetR (class B, Tn10) (UniProt P04483), measured TetR repression strength was 0.325

For TCCCTAAGAGTGGGCGAGA on TetR (class B, Tn10) (UniProt P04483), measured TetR repression strength was 0.157
